Every entry's value here was drawn from patent US12570655B2.

Assayed System: AKT1 E17K (Homo sapiens, UniProt P31749, E17K)
Sequence (P31749 whole entry E17K): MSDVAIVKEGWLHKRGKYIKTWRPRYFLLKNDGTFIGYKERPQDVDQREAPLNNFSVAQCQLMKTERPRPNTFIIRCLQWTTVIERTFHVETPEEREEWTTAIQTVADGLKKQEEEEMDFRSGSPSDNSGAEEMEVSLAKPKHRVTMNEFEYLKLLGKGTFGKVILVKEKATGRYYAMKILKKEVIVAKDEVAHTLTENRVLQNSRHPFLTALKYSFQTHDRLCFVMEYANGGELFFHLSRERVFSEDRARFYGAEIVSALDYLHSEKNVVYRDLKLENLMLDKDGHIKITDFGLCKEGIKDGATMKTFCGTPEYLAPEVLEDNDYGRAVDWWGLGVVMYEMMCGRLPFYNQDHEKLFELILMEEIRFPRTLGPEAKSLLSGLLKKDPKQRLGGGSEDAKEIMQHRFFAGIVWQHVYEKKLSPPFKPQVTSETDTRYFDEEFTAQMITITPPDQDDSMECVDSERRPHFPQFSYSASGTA
Experiment Notes: Live cell AKT1 E17K target engagement by NanoBRET competitive probe displacement
Reported Conditions: HEK293 cells transfected with kinase-NanoLuciferase fusion, 2 h at 37° C.
IC50 overview
Quantity Measured: IC50 (nM)

- C=CC(=O)N1CCC(N[C@@H]2c3c(F)cc(-n4c(-c5cccnc5N)nc5ccc(-n6cccn6)nc54)cc3CC2F)CC1 (single isomer, unassigned) [Example 341]: 80.3
- C=CC(=O)N1CCC(N[C@H]2CCc3cc(-n4c(-c5cccnc5N)nc5cc(F)c(-n6cccn6)nc54)ccc32)CC1: 21.8
- C=CC(=O)N1CCC(N[C@@H]2c3ccc(-n4c(-c5cccnc5N)nc5ccc(-n6ccc(C7CC7)n6)nc54)cc3CC2F)CC1 (single isomer, unassigned) [Example 298]: 14.2
- C=CC(=O)N1CCC(N[C@@H]2c3ccc(-n4c(-c5ccccc5)nc5ccc(-n6cccn6)nc54)cc3CC2F)CC1C(F)F (single isomer, unassigned) [Example 328]: 17.7
- C=CC(=O)N1C[C@@H]2[C@H](C1)[C@H]2NC1CCc2cc(-n3c(-c4cccnc4N)nc4ccc(-n5cccn5)nc43)ccc21 (single isomer, unassigned) [Example 346]: 444
- C=CC(=O)N1CCC(N[C@H]2CCc3cc(-n4c(-c5cccnc5N)nc5ccc(C6CC6)nc54)ccc32)C(C)C1 (single isomer, unassigned) [Example 231]: 74.8
